Data provenance: paper PMC12473689

# method notes: Binding in human liver S9 fraction by equilibrium dialysis (RED)
# Assay type: in vitro ADME
# condition label: human, liver S9 fraction, pH 7.4, human liver S9, 1 mg/mL protein, equilibrium dialysis 37 °C 4 h, mean ± SD (n = 3); read-out: fu (%) in liver S9 fractions
readout: fraction unbound at 4 h, 3 µM

(a) CCC(C)n1ncn(-c2ccc(N3CCN(c4ccc(OCC5COC(Cn6cncn6)(c6ccc(Cl)cc6Cl)O5)cc4)CC3)cc2)c1=O (stereo not drawn) [Itraconazole, itraconazole, reference compound]
(b) Cc1cc(=O)n(-c2ccccc2)n1C [Antipyrine, antipyrine, reference compound]
Hi there, can you help? I need to know whether a or b has lower measured fraction unbound at 4 h, 3 µM. In your reply, give the label of the chosen option.
a
(a: 0.028, b: 0.946)

* * *

# method notes: Pharmacokinetic study after single IV and PO dose
# Format: in vivo
# condition label: mouse, plasma; male ICR mice, single PO dose 10 mg/kg, mean ± SD (n = 4)
readout: AUC(0-t) (ng·h/mL)

(a) CN(C)CCn1c(=O)c2nc(-c3ccc(C(F)(F)F)cc3)oc2c2ccccc21 [KB-1517]
(b) CN(C)CCOc1nc2ccccc2c2oc(-c3ccc(C(F)(F)F)cc3)nc12 [KB-1518]
Would you let me know which has the greater AUC(0-t) value, a or b ? In your reply, give the label of the chosen option.
a

* * *

# method notes: Pharmacokinetic study after single IV and PO dose
# Assay type: in vivo
# condition label: mouse; male ICR mice, single PO dose 10 mg/kg, plasma, noncompartmental analysis, mean ± SD (n = 4)
readout: half-life (h)
Enter your answer as a number in h; do not include the unit.

Please report half-life for the following compound: `CN(C)CCOc1nc2ccccc2c2oc(-c3ccc(C(F)(F)F)cc3)nc12`
6.2

* * *

# method notes: In vitro metabolic stability in pooled human liver S9 fraction
# Assay type: in vitro ADME
# condition label: pH 7.4, HLS9, CLint,u = k/(fu,S9 × [S9]), read-out: CLint,u (unbound intrinsic clearance)
readout: microsomal CLint at 3 µM (µL/min/mg)

(a) CN(C)CCn1c(=O)c2nc(-c3ccc(C(F)(F)F)cc3)oc2c2ccccc21
(b) CN(C)CCOc1nc2ccccc2c2oc(-c3ccc(C(F)(F)F)cc3)nc12
Hi there, can you help? I need to know whether a or b has lower measured microsomal CLint at 3 µM. In your reply, give the label of the chosen option.
a
(a: 19.6 µL/min/mg, b: 101 µL/min/mg)

* * *

# method notes: Pharmacokinetic study after single IV and PO dose
# Type: in vivo
# condition label: mouse, plasma; male ICR mice, single IV dose 5 mg/kg, mean ± SD (n = 4)
readout: AUC(0-t) (ng·h/mL)

(I) CN(C)CCn1c(=O)c2nc(-c3ccc(C(F)(F)F)cc3)oc2c2ccccc21
(II) CN(C)CCOc1nc2ccccc2c2oc(-c3ccc(C(F)(F)F)cc3)nc12
Would you let me know which has the greater AUC(0-t) value, I or II ? In your reply, give the label of the chosen option.
II
(II: 3460 ng·h/mL, I: 1830 ng·h/mL)

* * *

# method notes: Pharmacokinetic study after single IV and PO dose
# Type: in vivo
# condition label: male, ICR, mouse, plasma, oral, 10 mg/kg, male ICR mice, PO 10 mg/kg vs IV 5 mg/kg, calculated from AUCinf; read-out: F (oral bioavailability)
readout: bioavailability

Please report bioavailability for the following compound: `CN(C)CCOc1nc2ccccc2c2oc(-c3ccc(C(F)(F)F)cc3)nc12`
~14%
